These entries and their values trace back to paper PMC6153936.

# assayInfo: in vitro
# conditionSet: dog
// values below are reported IC50 at 48 h

>  <compoundString>
O=C(Nc1ccccc1)Nc1ccc(Oc2ncnc3[nH]ncc23)cc1

>  <IC50 at 48 h>
> 80 µM

$$$$
>  <compoundString>
O=C(Nc1ccc(Oc2ncnc3[nH]ncc23)cc1)Nc1ccc(Cl)c(C(F)(F)F)c1

>  <IC50 at 48 h>
17.8 µM

$$$$
>  <compoundString>
Cc1cccc(NC(=O)Nc2ccc(Oc3ncnc4[nH]ncc34)cc2)c1C

>  <IC50 at 48 h>
> 80 µM

$$$$

###

# assaySystem: BRAF^V600E (Homo sapiens, UniProt P15056, V600E)
# Construct: purchased Life Technologies
# Sequence (P15056 whole entry V600E): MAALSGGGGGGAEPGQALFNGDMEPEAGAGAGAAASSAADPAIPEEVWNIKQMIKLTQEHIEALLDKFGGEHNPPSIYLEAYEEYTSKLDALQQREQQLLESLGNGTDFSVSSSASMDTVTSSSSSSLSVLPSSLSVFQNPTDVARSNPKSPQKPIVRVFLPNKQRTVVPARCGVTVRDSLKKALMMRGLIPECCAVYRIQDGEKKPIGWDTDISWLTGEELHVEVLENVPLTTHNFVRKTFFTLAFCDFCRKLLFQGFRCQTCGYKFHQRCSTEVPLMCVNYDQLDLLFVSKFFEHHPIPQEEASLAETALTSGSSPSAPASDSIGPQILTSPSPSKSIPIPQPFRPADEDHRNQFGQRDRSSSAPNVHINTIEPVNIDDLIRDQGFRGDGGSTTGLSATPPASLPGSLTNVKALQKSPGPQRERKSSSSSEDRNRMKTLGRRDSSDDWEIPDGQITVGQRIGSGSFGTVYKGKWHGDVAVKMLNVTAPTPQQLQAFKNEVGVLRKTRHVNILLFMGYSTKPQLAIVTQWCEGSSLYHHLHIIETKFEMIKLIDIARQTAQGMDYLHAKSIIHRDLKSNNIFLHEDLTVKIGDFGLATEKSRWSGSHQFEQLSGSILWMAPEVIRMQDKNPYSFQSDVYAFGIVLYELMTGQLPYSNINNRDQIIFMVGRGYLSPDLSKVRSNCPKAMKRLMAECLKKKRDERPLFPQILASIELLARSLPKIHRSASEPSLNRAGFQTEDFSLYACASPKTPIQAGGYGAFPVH
# assayInfo: BRAF^V600E kinase inhibition, Z'-LYTE
# Assay type: biochemical
# conditionSet: 1000 nM; average of two independent experiments

>  <molecule>
Cc1cccc(NC(=O)Nc2ccc(Oc3ncnc4[nH]ncc34)cc2)c1C [Compound 1h]

>  <unitAbbrev>
%

>  <inhibition at 1 µM>
27

$$$$
>  <molecule>
O=C(Nc1ccc(Oc2ncnc3[nH]ncc23)cc1)Nc1cc(C(F)(F)F)ccc1Cl [Compound 1i]

>  <unitAbbrev>
%

>  <inhibition at 1 µM>
83

$$$$
>  <molecule>
CSc1cccc(NC(=O)Nc2ccc(Oc3ncnc4[nH]ncc34)cc2)c1 [Compound 1o]

>  <unitAbbrev>
%

>  <inhibition at 1 µM>
69

$$$$
>  <molecule>
O=C(Nc1ccc(Oc2ncnc3[nH]ncc23)cc1)Nc1cc(C(F)(F)F)ccc1F [Compound 1n]

>  <unitAbbrev>
%

>  <inhibition at 1 µM>
87

$$$$

###

// values below are reported pIC50
# Tested on: A549
# assayInfo: MTT anti-proliferative assay, A549
# Assay type: cell-based, human
# conditionSet: Homo sapiens, A549; MTT, 48 h
pIC50: −log10 of the molar value.
measuredAttribute: pIC50

>  <compoundString>
O=C(Nc1ccc(Oc2ncnc3[nH]ncc23)cc1)Nc1cc(C(F)(F)F)ccc1Cl

>  <boundType>
=

>  <readoutValue>
4.22

$$$$
>  <compoundString>
CSc1cccc(NC(=O)Nc2ccc(Oc3ncnc4[nH]ncc34)cc2)c1

>  <boundType>
=

>  <readoutValue>
4.52

$$$$
>  <compoundString>
CCc1cccc(NC(=O)Nc2ccc(Oc3ncnc4[nH]ncc34)cc2)c1

>  <boundType>
=

>  <readoutValue>
4.70

$$$$
>  <compoundString>
Cc1cccc(NC(=O)Nc2ccc(Oc3ncnc4[nH]ncc34)cc2)c1C

>  <boundType>
<

>  <readoutValue>
4.10

$$$$
>  <compoundString>
O=C(Nc1ccc(Oc2ncnc3[nH]ncc23)cc1)Nc1ccc(Cl)c(Cl)c1

>  <boundType>
=

>  <readoutValue>
4.79

$$$$

###

// values below are reported melting point

>  <compoundString>
O=C(Nc1ccc(Oc2ncnc3[nH]ncc23)cc1)Nc1cccc(Br)c1

>  <melting point>
234.5 to 237 °C

$$$$
>  <compoundString>
O=C(Nc1ccc(Oc2ncnc3[nH]ncc23)cc1)Nc1cccc(Cl)c1

>  <melting point>
234.8 to 236 °C

$$$$
>  <compoundString>
CCc1cccc(NC(=O)Nc2ccc(Oc3ncnc4[nH]ncc34)cc2)c1

>  <melting point>
219.5 to 221.5 °C

$$$$
>  <compoundString>
COC(=O)c1cccc(NC(=O)Nc2ccc(Oc3ncnc4[nH]ncc34)cc2)c1

>  <melting point>
217.3 to 220.1 °C

$$$$
>  <compoundString>
Cn1ncc2c(Oc3ccc(NC(=O)Nc4cccc(Cl)c4)cc3)ncnc21

>  <melting point>
309.8 to 312 °C

$$$$
>  <compoundString>
O=C(Nc1ccc(Oc2ncnc3[nH]ncc23)cc1)Nc1cccc([N+](=O)[O-])c1

>  <melting point>
229.2 to 231.4 °C

$$$$
>  <compoundString>
Cn1ncc2c(Oc3ccc(NC(=O)Nc4ccc(Cl)c(C(F)(F)F)c4)cc3)ncnc21

>  <melting point>
212.1 to 213 °C

$$$$
>  <compoundString>
O=C(Nc1ccc(Oc2ncnc3[nH]ncc23)cc1)Nc1cc(F)cc(C(F)(F)F)c1

>  <melting point>
249.2 to 250.6 °C

$$$$

###

# assaySystem: BRAF^V600E (Homo sapiens, UniProt P15056, V600E)
# Construct: purchased Life Technologies
# assayInfo: BRAF^V600E kinase inhibition, Z'-LYTE
# Type: biochemical
# conditionSet: 100 nM; average of two independent experiments
Decide using inhibition at 0.1 µM: a value greater than or equal to 40% is 1, a smaller one is -1.

>  <molecule>
CSc1cccc(NC(=O)Nc2ccc(Oc3ncnc4[nH]ncc34)cc2)c1 [Compound 1o]

>  <cat>
-1

$$$$
>  <molecule>
Cn1ncc2c(Oc3ccc(NC(=O)Nc4cccc(Cl)c4)cc3)ncnc21 [Compound 1u]

>  <cat>
1

$$$$
>  <molecule>
Cc1ccc(NC(=O)Nc2ccc(Oc3ncnc4[nH]ncc34)cc2)cc1C [Compound 1t]

>  <cat>
-1

$$$$
>  <molecule>
CCc1cccc(NC(=O)Nc2ccc(Oc3ncnc4[nH]ncc34)cc2)c1 [Compound 1l]

>  <cat>
1

$$$$
>  <molecule>
O=C(Nc1ccc(Oc2ncnc3[nH]ncc23)cc1)Nc1ccc(Cl)c(C(F)(F)F)c1 [Compound 1a]

>  <cat>
-1

$$$$
>  <molecule>
O=C(Nc1ccc(Oc2ncnc3[nH]ncc23)cc1)Nc1cc(F)cc(C(F)(F)F)c1 [Compound 1j]

>  <cat>
-1

$$$$
>  <molecule>
O=C(Nc1ccc(Oc2ncnc3[nH]ncc23)cc1)Nc1cccc(Br)c1 [Compound 1s]

>  <cat>
-1

$$$$
>  <molecule>
O=C(Nc1ccc(Oc2ncnc3[nH]ncc23)cc1)Nc1cc(C(F)(F)F)ccc1F [Compound 1n]

>  <cat>
-1

$$$$
>  <molecule>
Cn1ncc2c(Oc3ccc(NC(=O)Nc4ccc(Cl)c(C(F)(F)F)c4)cc3)ncnc21 [Compound 1v]

>  <cat>
1

$$$$
>  <molecule>
O=C(Nc1ccc(Oc2ncnc3[nH]ncc23)cc1)Nc1cc(C(F)(F)F)ccc1Cl [Compound 1i]

>  <cat>
1

$$$$
>  <molecule>
O=C(Nc1ccc(Oc2ncnc3[nH]ncc23)cc1)Nc1cccc([N+](=O)[O-])c1 [Compound 1m]

>  <cat>
-1

$$$$
>  <molecule>
O=C(Nc1ccc(Oc2ncnc3[nH]ncc23)cc1)Nc1ccc(Cl)c(Cl)c1 [Compound 1c]

>  <cat>
-1

$$$$

###

measuredAttribute: melting point

>  <compoundString>
Cc1cccc(NC(=O)Nc2ccc(Oc3ncnc4[nH]ncc34)cc2)c1C

>  <measuredAttribute>
melting point

>  <readoutValue>
250.4 to 252.3 °C

$$$$
>  <compoundString>
CSc1cccc(NC(=O)Nc2ccc(Oc3ncnc4[nH]ncc34)cc2)c1

>  <measuredAttribute>
melting point

>  <readoutValue>
227.3 to 228.4 °C

$$$$
>  <compoundString>
N#Cc1cccc(NC(=O)Nc2ccc(Oc3ncnc4[nH]ncc34)cc2)c1

>  <measuredAttribute>
melting point

>  <readoutValue>
235.2 to 237.4 °C

$$$$
>  <compoundString>
Cc1ccc(NC(=O)Nc2ccc(Oc3ncnc4[nH]ncc34)cc2)cc1C

>  <measuredAttribute>
melting point

>  <readoutValue>
249.9 to 250.6 °C

$$$$
>  <compoundString>
O=C(Nc1ccc(Oc2ncnc3[nH]ncc23)cc1)Nc1ccc(Cl)c(Cl)c1

>  <measuredAttribute>
melting point

>  <readoutValue>
245 to 247.2 °C

$$$$
>  <compoundString>
Cc1ccc([N+](=O)[O-])c(NC(=O)Nc2ccc(Oc3ncnc4[nH]ncc34)cc2)c1

>  <measuredAttribute>
melting point

>  <readoutValue>
359.7 to 360.2 °C

$$$$
>  <compoundString>
Cc1cccc(NC(=O)Nc2ccc(Oc3ncnc4[nH]ncc34)cc2)c1

>  <measuredAttribute>
melting point

>  <readoutValue>
227.4 to 230 °C

$$$$
>  <compoundString>
Cc1ccc(Cl)c(NC(=O)Nc2ccc(Oc3ncnc4[nH]ncc34)cc2)c1

>  <measuredAttribute>
melting point

>  <readoutValue>
230.2 to 232.4 °C

$$$$
>  <compoundString>
O=C(Nc1ccc(Oc2ncnc3[nH]ncc23)cc1)Nc1cc(C(F)(F)F)ccc1Cl

>  <measuredAttribute>
melting point

>  <readoutValue>
239.2 to 240.3 °C

$$$$
>  <compoundString>
O=C(Nc1ccccc1)Nc1ccc(Oc2ncnc3[nH]ncc23)cc1

>  <measuredAttribute>
melting point

>  <readoutValue>
247.3 to 249.2 °C

$$$$

###

# assaySystem: UniProt:P15056

>  <molecule>
Cn1ncc2c(Oc3ccc(NC(=O)Nc4ccc(Cl)c(C(F)(F)F)c4)cc3)ncnc21 [Compound 1v]

>  <unitAbbrev>
nM

>  <IC50>
51.5

$$$$

###

// values below are reported pIC50
# Tested on: A549
# assayInfo: MTT anti-proliferative assay, A549
# Type: cell-based, human
# conditionSet: Homo sapiens, A549; MTT, 48 h
pIC50: −log10 of the molar value.

>  <compound>
O=C(Nc1ccccc1)Nc1ccc(Oc2ncnc3[nH]ncc23)cc1

>  <boundType>
<

>  <pIC50>
4.10

$$$$
>  <compound>
Cn1ncc2c(Oc3ccc(NC(=O)Nc4ccc(Cl)c(C(F)(F)F)c4)cc3)ncnc21

>  <boundType>
=

>  <pIC50>
4.90

$$$$
>  <compound>
O=C(Nc1ccc(Oc2ncnc3[nH]ncc23)cc1)Nc1cc(F)cc(C(F)(F)F)c1

>  <boundType>
=

>  <pIC50>
4.22

$$$$
>  <compound>
O=C(Nc1ccc(Cl)cc1)Nc1ccc(Oc2ncnc3[nH]ncc23)cc1

>  <boundType>
<

>  <pIC50>
4.10

$$$$
>  <compound>
Cn1ncc2c(Oc3ccc(NC(=O)Nc4cccc(Cl)c4)cc3)ncnc21

>  <boundType>
<

>  <pIC50>
4.10

$$$$
>  <compound>
O=C(Nc1ccc(Oc2ncnc3[nH]ncc23)cc1)Nc1cc(C(F)(F)F)ccc1F

>  <boundType>
=

>  <pIC50>
4.49

$$$$
>  <compound>
O=C(Nc1ccc(Oc2ncnc3[nH]ncc23)cc1)Nc1ccc(Cl)c(C(F)(F)F)c1

>  <boundType>
=

>  <pIC50>
4.70

$$$$
>  <compound>
Cc1cccc(NC(=O)Nc2ccc(Oc3ncnc4[nH]ncc34)cc2)c1

>  <boundType>
=

>  <pIC50>
4.12

$$$$
>  <compound>
O=C(Nc1ccc(Oc2ncnc3[nH]ncc23)cc1)Nc1cccc(Br)c1

>  <boundType>
<

>  <pIC50>
4.10

$$$$
>  <compound>
N#Cc1cccc(NC(=O)Nc2ccc(Oc3ncnc4[nH]ncc34)cc2)c1

>  <boundType>
=

>  <pIC50>
4.23

$$$$
>  <compound>
O=C(Nc1ccc(Oc2ncnc3[nH]ncc23)cc1)Nc1cccc([N+](=O)[O-])c1

>  <boundType>
<

>  <pIC50>
4.10

$$$$
>  <compound>
Cc1ccc(Cl)c(NC(=O)Nc2ccc(Oc3ncnc4[nH]ncc34)cc2)c1

>  <boundType>
=

>  <pIC50>
5.28

$$$$
>  <compound>
O=C(Nc1ccc(Oc2ncnc3[nH]ncc23)cc1)Nc1cccc(Cl)c1

>  <boundType>
=

>  <pIC50>
4.15

$$$$
>  <compound>
COC(=O)c1cccc(NC(=O)Nc2ccc(Oc3ncnc4[nH]ncc34)cc2)c1

>  <boundType>
<

>  <pIC50>
4.10

$$$$
>  <compound>
CNC(=O)c1cc(Oc2ccc(NC(=O)Nc3ccc(Cl)c(C(F)(F)F)c3)cc2)ccn1 [Sorafenib, reference compound]

>  <boundType>
=

>  <pIC50>
4.86

$$$$
>  <compound>
Cc1ccc([N+](=O)[O-])c(NC(=O)Nc2ccc(Oc3ncnc4[nH]ncc34)cc2)c1

>  <boundType>
<

>  <pIC50>
4.10

$$$$
>  <compound>
Cc1ccc(NC(=O)Nc2ccc(Oc3ncnc4[nH]ncc34)cc2)cc1C

>  <boundType>
<

>  <pIC50>
4.10

$$$$
